// provenance: the supplement of paper PMC12645437

# assayedSystem: T1, CRBN, Q96SW2;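 further: pooled lentiviral library of zinc finger degron-EGFP fusions in mCherry-positive Jurkat cells, FACS-sorted after compound exposure, with degron abundance counted by next-generation sequencing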
# T1 chain: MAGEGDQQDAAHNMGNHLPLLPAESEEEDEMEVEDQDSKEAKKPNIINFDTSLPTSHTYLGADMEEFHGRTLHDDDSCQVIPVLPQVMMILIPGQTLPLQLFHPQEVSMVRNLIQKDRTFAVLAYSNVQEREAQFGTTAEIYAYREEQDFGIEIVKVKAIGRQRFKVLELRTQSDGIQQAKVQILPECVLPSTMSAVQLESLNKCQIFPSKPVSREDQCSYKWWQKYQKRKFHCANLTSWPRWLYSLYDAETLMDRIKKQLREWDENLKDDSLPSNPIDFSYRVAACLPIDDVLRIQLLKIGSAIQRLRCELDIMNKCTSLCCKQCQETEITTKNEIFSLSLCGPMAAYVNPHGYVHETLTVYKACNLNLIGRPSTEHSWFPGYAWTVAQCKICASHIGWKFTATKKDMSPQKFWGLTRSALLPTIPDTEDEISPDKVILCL
# testProtocol: log2 fold change of degron read counts, EGFP-low vs EGFP+ sorted cells (limma voom), compound-induced degradation; higher = more compound-induced degradation of the degron-EGFP fusion; degrons are variants of IKZF1/3 zinc finger 2; compound dose not given here
# settings: Jurkat; 18 h; compound: thalidomide
The full ranking holds about 8,300 sequences; the median of “log2 fold change of degron read counts, EGFP-low vs EGFP+ sorted cells (limma voom), compound-induced degradation” is about -1.1, and the highest 2% start at about 3.2. For the sample, the highest values were picked, then their nearest neighbours and some sequences at random.
observable: log2 fold change of degron read counts

Examples from the recorded data:
>  <polymerSequence>
FCCDICGAQFTQKGNLLRHIKL [46F_47C_49D_50I_52G_53A_54Q_55F_67L_, Q9UKT9]

>  <reading>
0.205

$$$$
>  <polymerSequence>
FHCEICGRPFTQKGNLLRHIKL [46F_47H_49E_50I_52G_53R_54P_55F_67L_, Q9UKT9]

>  <reading>
-0.468

$$$$
>  <polymerSequence>
FFCDICGAQFTQKGNLLRHIKL [46F_47F_49D_50I_52G_53A_54Q_55F_67L_, Q9UKT9]

>  <reading>
0.0187

$$$$

Let us move to another entry and its log2 fold change of degron read counts.
The recorded log2 fold change of degron read counts for entry FLCDICGAQFTQKGNLLRHIKL [46F_47L_49D_50I_52G_53A_54Q_55F_67L_, Q9UKT9] equals 0.0613
